test system: SK-OV-3 (human ovarian cancer cell); test: In vitro antitumor activity, CellTiter-Glo cell viability, 48 h; type: cell-based; conditions: SK-OV-3, 48 h, read-out: Relative IC50 (μM) SK-OV-3
IC50 values by entry
Note: unit µM is implicit; provide only the numeric part.

Previously resolved entries follow.
compound	IC50 / µM
CC(C)[C@]12O[C@H]1[C@@H]1O[C@]13[C@]1(O[C@H]1C[C@H]1C4=C(CC[C@@]13C)C(=O)O/C4=C(/OC(=O)C1CCCCC1)c1ccccc1)[C@@H]2OC(=O)OC(C)(C)C [CK21S-006-b]	0.045
CC(C)[C@]12O[C@H]1[C@@H]1O[C@]13[C@]1(O[C@H]1C[C@H]1C4=C(CC[C@@]13C)C(=O)O/C4=C(/OC(=O)c1ccco1)c1ccccc1)[C@@H]2OC(=O)OC(C)(C)C [CK21S-001-b]	0.048
CC(C)[C@]12O[C@H]1[C@@H]1O[C@]13[C@]1(O[C@H]1C[C@H]1C4=C(CC[C@@]13C)C(=O)O/C4=C(/OC(=O)c1ccccc1)c1ccccc1)[C@@H]2O [CK21S-005]	0.041
COc1ccc(C(=O)O/C(=C2/OC(=O)C3=C2[C@@H]2C[C@@H]4O[C@@]45[C@H](OC(=O)OC(C)(C)C)[C@@]4(C(C)C)O[C@H]4[C@@H]4O[C@@]45[C@@]2(C)CC3)c2ccc(OC)cc2)cc1 [CK21S-002-b]	0.057
CC(C)[C@]12O[C@H]1[C@@H]1O[C@]13[C@]1(O[C@H]1C[C@H]1C4=C(CC[C@@]13C)C(=O)O/C4=C(/OC(=O)c1ccc(C(F)(F)F)cc1)c1ccc(C(F)(F)F)cc1)[C@@H]2OC(=O)OC(C)(C)C [CK21S-003-b]	0.029

Now consider a different compound.
// IC50 lookup, key: CC(C)[C@]12O[C@H]1[C@@H]1O[C@]13[C@]1(O[C@H]1C[C@H]1C4=C(CC[C@@]13C)C(=O)O/C4=C(/OC(=O)c1ccco1)c1ccco1)[C@@H]2OC(=O)OC(C)(C)C [CK21S-004-b]
0.129
